# system-tested: Recombinant human his-tagged IGF 1R extracellular domain protein (human) (UniProt P08069)
# assay-protocol: SPR, captured antibody, dissociation at pH 6
measured-attribute: Kd (nM)
Report the value in nM with no unit label.

Here's what some known entries look like.
VRDN-03102 (antibody, V domains shown) VH: QVQLVESGGGVVQPGRSLRLSCAASGFTFSDYTMHWVRQAPGKGLEWVAIIWFDGSSKYYVDSVKGRFTISRDNSKNTLYLQMNSLRAEDTAVYYCARELGRRYFDIWGRGTLVTVSS VL: EIVLTQSPATLSLSPGERATLSCRASQGVSSYLAWYQQKPGQAPRLLIYGASTRATGIPARFSGSGSGTDFTLTISSLEPEDFAVYYCQQRSRWPPWTFGQGTKLEIK = 1.46
VRDN-03050 (antibody, V domains shown) VH: QVELVESGGGVVQPGRSQRLSCAASGFTFSSYGMHWVRQAPGKGLEWVAIIWFDGSSTYYADSVRGRFTISRDNSKNTLYLQMNSLRAEDTAVYFCARELGRRYFDLWGRGTLVSVSS VL: EIVLTQSPATLSLSPGERATLSCRASQSVSSYLAWYQQKPGQAPRLLIYDHSKRATGIPARFSGSGSGTDFTLTISSLEPEDFAVYYCQQRSKWPPWTFGQGTKVESK = 2.25

Let us examine a further case.
Challenge: Give me measured Kd, please, for this binder: VRDN-03038 (antibody, V domains shown) VH: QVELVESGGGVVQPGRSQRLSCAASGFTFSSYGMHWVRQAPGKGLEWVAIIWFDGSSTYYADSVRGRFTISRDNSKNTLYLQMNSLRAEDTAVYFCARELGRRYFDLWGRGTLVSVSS VL: EIVLTQSPATLSLSPGERATLSCHASQSVSSYLAWYQQKPGQAPRLLIYDASKRATGIPARFSGSGSGTDFTLTISSLEPEDFAVYYCQQRSKWPPWTFGQGTKVESK
Response given: 1.4
